# studySystem: Estrogen Receptor (ERα) in MCF-7 human ductal carcinoma breast cell line (Homo sapiens)
# Construct: endogenous in cells; host or cells: MCF-7
# Sequence (P03372 whole entry): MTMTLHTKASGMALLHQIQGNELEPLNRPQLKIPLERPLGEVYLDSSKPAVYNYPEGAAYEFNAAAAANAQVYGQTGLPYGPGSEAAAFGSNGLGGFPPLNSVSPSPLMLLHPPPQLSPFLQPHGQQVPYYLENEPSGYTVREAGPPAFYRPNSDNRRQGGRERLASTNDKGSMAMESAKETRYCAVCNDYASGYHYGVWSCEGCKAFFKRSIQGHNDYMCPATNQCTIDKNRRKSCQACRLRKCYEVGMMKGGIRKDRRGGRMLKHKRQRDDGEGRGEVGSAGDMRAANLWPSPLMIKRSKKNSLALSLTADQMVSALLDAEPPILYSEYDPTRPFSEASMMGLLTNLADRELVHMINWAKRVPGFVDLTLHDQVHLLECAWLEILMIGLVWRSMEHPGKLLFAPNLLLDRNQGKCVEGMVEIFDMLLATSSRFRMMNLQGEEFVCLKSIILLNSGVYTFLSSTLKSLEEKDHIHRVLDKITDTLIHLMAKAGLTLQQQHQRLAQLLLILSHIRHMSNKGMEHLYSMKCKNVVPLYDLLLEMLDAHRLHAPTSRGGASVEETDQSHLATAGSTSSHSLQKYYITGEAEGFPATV
# assayOverview: MCF-7 ER degradation assay (cell based immuno-fluorescence)
# cond: MCF-7 cells, 0.3 μM; ER degradation by fulvestrant at 0.3 μM is defined as 100%
Where a name gives a salt, the structure may show the parent alone.
recordedEndpoint: ER degradation ≥ 90% at 0.3 μM

Take a look at these entries with their results.
Cc1ncsc1-c1ccc(CNC(=O)[C@@H]2C[C@@H](O)CN2C(=O)[C@@H](NC(=O)COCCCOCCOc2cc(F)c([C@@H]3c4[nH]c5ccccc5c4C[C@@H](C)N3CC(F)(F)F)c(F)c2)C(C)(C)C)cc1 ... •
CC[C@H](C)[C@H](N)C(=O)O[C@@H]1C[C@@H](C(=O)NCc2ccc(-c3scnc3C)cc2)N(C(=O)[C@@H](NC(=O)COCCOCCOCCOc2cc(F)c([C@@H]3c4[nH]c5ccccc5c4C[C@@H](C)N3CC(C)(C)F)c(F)c2)C(C)(C)C)C1 [Example 99, Formate] ... •
COC(=O)[C@@H](C)CN1[C@H](c2c(F)cc(OCCOCCOCCOCC(=O)N[C@H](C(=O)N3C[C@H](O)C[C@H]3C(=O)NCc3ccc(-c4scnc4C)cc3)C(C)(C)C)cc2F)c2[nH]c3ccccc3c2C[C@H]1C ... ••
Cc1ncsc1-c1ccc(CNC(=O)[C@@H]2C[C@@H](O)CN2C(=O)[C@@H](NC(=O)COCCCCCOc2cc(F)c([C@@H]3c4[nH]c5ccccc5c4C[C@@H](C)N3CC(F)(F)F)c(F)c2)C(C)(C)C)cc1 ... •
Cc1ncsc1-c1ccc(CNC(=O)[C@@H]2C[C@@H](O)CN2C(=O)[C@@H](NC(=O)COCCOCCOCCOCCOCC(=O)Nc2ccc([C@@H]3c4[nH]c5ccccc5c4C[C@@H](C)N3CC(C)(C)F)cc2)C(C)(C)C)cc1 ... ••

# query: ER degradation ≥ 90% at 0.3 μM of entry `Cc1ncsc1-c1ccc([C@H](C)NC(=O)[C@@H]2C[C@@H](O)CN2C(=O)[C@@H](NC(=O)CCOCCCCCCCOc2cc(F)c([C@@H]3c4[nH]c5ccccc5c4C[C@@H](C)N3CC(C)(C)F)c(F)c2)C(C)(C)C)cc1`
••

# query: ER degradation ≥ 90% at 0.3 μM of entry `Cc1ncsc1-c1ccc(CNC(=O)[C@@H]2C[C@@H](O)CN2C(=O)[C@@H](NC(=O)COCCCCC(=O)NCCOc2cc(F)c([C@@H]3c4[nH]c5ccccc5c4C[C@@H](C)N3CC(C)(C)F)c(F)c2)C(C)(C)C)cc1`
••

# query: ER degradation ≥ 90% at 0.3 μM of entry `Cc1ncsc1-c1ccc(CNC(=O)[C@@H]2C[C@@H](O)CN2C(=O)[C@@H](NC(=O)COCCCCCCCOc2cc(F)c([C@@H]3c4[nH]c5ccccc5c4C[C@@H](C)N3CC(C)(C)F)c(F)c2)C(C)(C)C)cc1`
••

---

Property: DC50; scope: individual molecules
# studySystem: Estrogen Receptor (ERα) in MCF-7 human ductal carcinoma breast cell line (Homo sapiens)
# Construct: endogenous in cells; host or cells: MCF-7
# assayOverview: MCF-7 ER degradation assay (cell based immuno-fluorescence)
# cond: MCF-7 cells, 18-22 hours incubation, 50% reduction of ERα expression; single experiment or average of two or more; read-out: MCF-7 ER degradation IC50
# Method: MCF-7 ER Degradation Assay The ability of compounds to down-regulate Estrogen Receptor (ER) numbers was assessed in a cell based immuno-fluorescence assay using the MCF-7 human ductal carcinoma breast cell line. […] Cells were syringed once using a sterile 18 G×1.5 inch (1.2×40 mm) broad gauge needle and cell density was measured using a Coulter Counter (Beckman). […]
Report the value in pM with no unit label.

Cc1ncsc1-c1ccc(CNC(=O)[C@@H]2C[C@@H](O)CN2C(=O)[C@@H](NC(=O)COCCOCCOCCOCCOCCOCC(=O)Nc2ccc([C@@H]3c4[nH]c5ccccc5c4C[C@@H](C)N3CC(C)(C)F)cc2)C(C)(C)C)cc1 [Example 54, Trifluoroacetic Acid] ... 1700
Cc1ncsc1-c1ccc(CNC(=O)[C@@H]2C[C@@H](O)CN2C(=O)[C@@H](NC(=O)COc2ccc(OCCNC(=O)/C=C/c3cc(F)c([C@@H]4c5[nH]c6ccccc6c5C[C@@H](C)N4CC(C)(C)F)c(F)c3)cc2)C(C)(C)C)cc1 [Example 61, Trifluoroacetic Acid] ... 700
Cc1ncsc1-c1ccc(CNC(=O)[C@@H]2C[C@@H](O)CN2C(=O)[C@@H](NC(=O)COCCOCCOCCNC(=O)c2cc(F)c([C@@H]3c4[nH]c5ccccc5c4C[C@@H](C)N3CC(C)(C)F)c(F)c2)C(C)(C)C)cc1 [Example 91] ... 300
Cc1ncsc1-c1ccc(CNC(=O)[C@@H]2C[C@@H](O)CN2C(=O)[C@@H](NC(=O)COCCO[C@H](C)[C@@H](C)OCCOc2cc(F)c([C@@H]3c4[nH]c5ccccc5c4C[C@@H](C)N3CC(C)(C)F)c(F)c2)C(C)(C)C)cc1 [Example 80] ... 700
Cc1ncsc1-c1ccc(CNC(=O)[C@@H]2C[C@@H](O)CN2C(=O)[C@@H](NC(=O)COCCC(F)(F)CCOc2cc(F)c([C@@H]3c4[nH]c5ccccc5c4C[C@@H](C)N3CC(C)(C)F)c(F)c2)C(C)(C)C)cc1 [Example 130] ... 500

// fetch Estrogen Receptor (ERα) in MCF-7 human ductal carcinoma breast cell line (Homo sapiens) DC50 for Cc1ncsc1-c1ccc(CNC(=O)[C@@H]2C[C@@H](O)CN2C(=O)[C@@H](NC(=O)COCCOCCOCCOCC(=O)Nc2ccc([C@@H]3c4[nH]c5ccccc5c4C[C@@H](C)N3CC(C)(C)F)cc2)C(C)(C)C)cc1 [Example 55, Trifluoroacetic Acid]
1200

// fetch Estrogen Receptor (ERα) in MCF-7 human ductal carcinoma breast cell line (Homo sapiens) DC50 for Cc1ncsc1-c1ccc(CNC(=O)[C@@H]2C[C@@H](O)CN2C(=O)[C@@H](NC(=O)COCCOCCOCC(=O)Nc2ccc([C@@H]3c4[nH]c5ccccc5c4C[C@@H](C)N3CC(C)(C)F)cc2)C(C)(C)C)cc1 [Example 57, Trifluoroacetic Acid]
900

// fetch Estrogen Receptor (ERα) in MCF-7 human ductal carcinoma breast cell line (Homo sapiens) DC50 for Cc1ncsc1-c1ccc(CNC(=O)[C@@H]2C[C@@H](O)CN2C(=O)[C@@H](NC(=O)COCCCCOCCOc2cc(F)c([C@@H]3c4[nH]c5ccccc5c4C[C@@H](C)N3CC(C)(C)F)c(F)c2)C(C)(C)C)cc1 [Example 16]
800
